- assayed system: T1, Ml2 (Mesorhizobium loti, UniProt A0A1A5JHX8 1-141)
- T1 sequence: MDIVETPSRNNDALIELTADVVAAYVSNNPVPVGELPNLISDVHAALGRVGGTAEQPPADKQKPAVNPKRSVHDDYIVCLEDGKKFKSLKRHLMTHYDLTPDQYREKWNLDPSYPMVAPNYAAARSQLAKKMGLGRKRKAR
- test method notes: EMSA
- conditions: protein: recombinant; chain copies: 10
outcome measure: binding result

Entry under test: Core3 (dsDNA) DNA 1: GGCGCCGAAATACCGGAGCG DNA 2: CGCTCCGGTATTTCGGCGCC . Its binding result was binds

Item: Core2 (dsDNA) DNA 1: GGCGCCGAAATAACGGAGCG DNA 2: CGCTCCGTTATTTCGGCGCC | binding result: binds
